run.description: Pharmacokinetics of AS and DHA in rat plasma after single and multiple intravenous AS injections (automated blood sampler, LC-MS/MS);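 note: blood drawn through a jugular vein catheter by an automated sampling system, plasma drug levels measured by LC-MS/MS with positive electrospray ionization against standard curves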
Format: in vivo, Sprague-Dawley rats
applied.conditions: male, Sprague-Dawley, rat, plasma, iv, 20 mg/kg, Chinese formulation (AS/NaHCO3), 20 mg/kg i.v. daily for 3 days, male rats, Period 2, Day 1
Listed below: Cmax values for each entry.
property.label: Cmax (ng/mL)

{"columns": ["compound", "property.label", "u", "readout.value"],
 "data": [
  ["C[C@H]1[C@@H](O)O[C@@H]2O[C@@]3(C)CC[C@H]4[C@H](C)CC[C@@H]1[C@@]24OO3 [DHA, dihydroartemisinin]", "Cmax", "ng/mL", 2690],
  ["C[C@H]1[C@H](OC(=O)CCC(=O)O)O[C@@H]2O[C@@]3(C)CC[C@H]4[C@H](C)CC[C@@H]1[C@@]24OO3 [AS, artesunate]", "Cmax", "ng/mL", 4140]
]}

From: paper PMC4052546
